Cited source: patent EP1724268A1

# Tested on: TGFβ signal
# TEST: TGFβ signal inhibitory activity, (SBE)4-Luc reporter in A549 cells (Test Examples 1A and 1B)
# Assay type: cell-based, human
# PROTOCOL_CONDITIONS: Homo sapiens, A549; 3 µM; compounds of Reference Examples (Test Example 1B); read-out: TGFβ inhibition rate, %
Recorded inhibition at 3 µM, one value per entry.
Return type: number; implicit unit %.

Record excerpt, results attached:
>>> endpoint_value("CCc1nc2ncccc2cc1Oc1ccnc2cc(OC)c(OC)cc12")
88
>>> endpoint_value("COc1cc2nccc(Oc3cc4ccccc4nc3C)c2cc1OC")
89

Moving on to another compound below.
Inquiry: Tell me the measured inhibition at 3 µM of COc1cc2nccc(Oc3ccc(SC)nc3-c3ccccn3)c2cc1OC , please.
Reply text: 92
